Items are presented alongside their recorded Kd.
assay-system: α-Synuclein fibrils (preformed fibrils of recombinant human wild-type αSyn) (human, UniProt P37840 1-140)
test-name: co-sedimentation; as a4 with a range of peptide concentrations (0–200 μM) and αSyn fibrils (100 μM); bound peptide by reversed phase chromatography
condition-set: both partners purified

- binder: "GILNVSAVDKSTGKENKITITN (Hsc70 residues 484–505; source: synthetic peptide; bought: GL Biochem Ltd) [Hsc-10 (Hsc70-derived peptide)]"
  observed-property: "Kd"
  result: "> 100 µM"

Now, please, on to the next binder.
Value of measured Kd for the entry TKQTQTFTTYSDNQPGVLIQVYE (Hsc70 residues 422–444; source: synthetic peptide; bought: GL Biochem Ltd) [Hsc-6 (Hsc70-derived peptide)] : > 100 µM
